Origin of the recorded values: patent US20100179203A1

readout_name: melting point

(Q) Please supply the value of reported melting point for the item `COc1ccc(-n2cc(CC(=O)NS(C)(=O)=O)c(-c3ccc(Cl)c(F)c3)n2)cc1Cl`
(A) 216.8 to 218.2 °C

(Q) Please supply the value of reported melting point for the item `COc1ccc(-n2cc(/C=C(\C#N)C(=O)O)c(-c3ccc(Cl)c(F)c3)n2)cc1Cl`
(A) 282.8 to 284.2 °C

(Q) Please supply the value of reported melting point for the item `COc1ccc(-n2cc(/C=C/c3nnn[nH]3)c(-c3ccc(Cl)c(F)c3)n2)cc1Cl`
(A) 128.4 to 130 °C

(Q) Please supply the value of reported melting point for the item `COc1ccc(-n2cc(/C=C/C(=O)NS(C)(=O)=O)c(-c3ccc(Cl)c(F)c3)n2)cc1Cl`
(A) 269.3 to 270.5 °C

(Q) Please supply the value of reported melting point for the item `COc1ccc(-n2cc(/C=C/C(=O)O)c(-c3ccc(Cl)c(F)c3)n2)cc1Cl`
(A) 240.2 to 241.3 °C

(Q) Please supply the value of reported melting point for the item `O=c1[nH]c(Cc2cn(-c3cc(C(F)(F)F)cc(C(F)(F)F)c3)nc2-c2cccc(Cl)c2)no1`
(A) 200 to 201 °C

###

measurement_target: BK channels (Homo sapiens, UniProt Q12791)
Sequence (Q12791 whole entry): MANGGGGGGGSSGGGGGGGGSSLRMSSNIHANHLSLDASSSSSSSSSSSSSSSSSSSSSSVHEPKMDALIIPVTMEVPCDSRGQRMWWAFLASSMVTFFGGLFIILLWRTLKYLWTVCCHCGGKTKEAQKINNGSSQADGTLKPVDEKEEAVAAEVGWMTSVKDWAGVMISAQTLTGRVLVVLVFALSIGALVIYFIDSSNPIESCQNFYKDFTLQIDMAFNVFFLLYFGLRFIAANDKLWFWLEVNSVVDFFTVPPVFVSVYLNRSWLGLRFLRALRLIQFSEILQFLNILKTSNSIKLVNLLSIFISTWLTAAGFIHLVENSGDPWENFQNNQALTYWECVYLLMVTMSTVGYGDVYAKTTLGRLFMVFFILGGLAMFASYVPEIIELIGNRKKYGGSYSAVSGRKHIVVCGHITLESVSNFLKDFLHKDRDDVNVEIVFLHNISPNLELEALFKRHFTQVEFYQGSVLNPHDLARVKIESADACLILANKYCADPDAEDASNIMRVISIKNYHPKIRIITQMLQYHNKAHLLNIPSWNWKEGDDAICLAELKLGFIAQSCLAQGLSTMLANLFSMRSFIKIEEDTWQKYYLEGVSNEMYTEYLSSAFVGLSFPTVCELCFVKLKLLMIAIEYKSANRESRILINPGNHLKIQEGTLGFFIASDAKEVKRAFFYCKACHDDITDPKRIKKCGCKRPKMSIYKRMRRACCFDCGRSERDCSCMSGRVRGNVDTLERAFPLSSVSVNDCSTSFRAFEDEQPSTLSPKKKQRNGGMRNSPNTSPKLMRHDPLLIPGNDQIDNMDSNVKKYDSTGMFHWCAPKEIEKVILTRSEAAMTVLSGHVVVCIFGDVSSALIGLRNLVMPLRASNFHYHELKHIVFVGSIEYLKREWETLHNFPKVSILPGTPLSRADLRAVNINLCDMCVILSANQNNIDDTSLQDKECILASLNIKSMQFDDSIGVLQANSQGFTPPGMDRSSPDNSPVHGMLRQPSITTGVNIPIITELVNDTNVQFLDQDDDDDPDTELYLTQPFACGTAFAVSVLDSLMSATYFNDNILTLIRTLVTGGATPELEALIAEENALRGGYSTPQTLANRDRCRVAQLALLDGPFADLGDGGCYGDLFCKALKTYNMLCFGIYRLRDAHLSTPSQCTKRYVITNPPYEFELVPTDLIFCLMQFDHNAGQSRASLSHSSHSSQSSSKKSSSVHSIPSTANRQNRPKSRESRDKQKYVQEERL
assay_name: BK channel opening activity, two-electrode voltage clamp in Xenopus laevis oocytes
measurement_conditions: BK channels heterologously expressed in Xenopus laevis oocytes; ramp -120 to +120 mV; 0.01-31.6 μM; fit of ΔV vs concentration; read-out: EC50 for the left-shift of the BK activation curve
readout_name: EC50 (nM)
Field: numeric (nM). Do not append units.

(Q) Recall the reported EC50 of `Clc1ccc(-c2nn(-c3ccc(Br)cc3)cc2CCc2nnn[nH]2)cc1` on BK channels (Homo sapiens, UniProt Q12791) and write it down.
(A) 1400
